The reported measurements were obtained from PubChem BioAssay AID1850.

- Protocol Description: PhoP regulon inhibitors, Salmonella typhi PhoP promoter GFP reporter, confirmatory (AID 1850);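 also: 0% = induced wells with vehicle and 100% = uninduced wells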
- Condition Details: fluorescence, 4 h, at 50 µM, hits give high values
Out of some 310,000 compounds screened, about 1,000 (0.32%) were called active. Only a sample is shown. Entries with a potency or affinity are not part of this list.
Measured Parameter: inhibition (%)
// return numeric value only (unit: %, not printed)

# query: inhibition of entry Cc1ccc(N/C(N)=N/c2nc(C)cc(C)n2)cc1
-9.13

Lookup CCC(=O)Nc1ccc(N/C(N)=N/c2nc(C)cc(C)n2)cc1
-8.68

Lookup Cc1ccc(OCCNC(=O)CCC(=O)N2CCOCC2)cc1
1.97

Lookup Cc1ccccc1S(=O)(=O)Cc1ccc(C(=O)O)o1
-5.44

Lookup Cc1cc(C)nc(/N=C(\N)Nc2cc([N+](=O)[O-])ccc2C)n1
-1.74

Lookup COc1ccc2c(C(=O)CN3CCN(CCO)CC3)c[nH]c2c1
-2.19

----------
- Protocol Description: PhoP regulon inhibitors, Salmonella typhi PhoP promoter GFP reporter, confirmatory (AID 1850);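 also: 0% = induced wells with vehicle and 100% = uninduced wells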
- Condition Details: fluorescence, 4 h, at 50 µM, hits give high values
Among all 310,000 compounds or so, about 1,000 (0.32%) were called active. Not all results are given here. Results with a measured potency or affinity are listed apart.
Measured Parameter: inhibition (%)
// return numeric value only (unit: %, not printed)

# query: inhibition of entry Cc1ccnc(NC(=O)C(C)N2C(=O)c3ccccc3S2(=O)=O)c1 (stereo unspecified)
6.11

Lookup Cc1nn(C)cc1/C=N/NC(=O)CSc1ccccn1
3.55

Lookup CC(=O)N(C)C1=C(O)c2ccccc2C(=O)C1=O
-5.54

Lookup Cc1ccnn1CC(=O)N/N=C/c1c[nH]c2ccccc12
2.22

Lookup Cc1sc2cc3c(c(C(=O)c4ccccc4)[n+]2c1C)-c1cccc2cccc-3c12
-9.84

Lookup O=C(CSc1nc2ccccc2s1)N/N=C/c1ccccc1C(=O)O
10.8

Lookup O=C(CSc1ccccn1)N/N=C/c1ccccc1[N+](=O)[O-]
-6.71

Lookup O=C(CSc1ccccn1)N/N=C/c1cccc([N+](=O)[O-])c1
1.33

Lookup CC(=O)C(C(C)=O)C1(O)C(=O)c2ccccc2C1=O
-7.03

Lookup COc1ccc(-c2nnc(-c3ccccc3O)o2)cc1
3.32

Lookup O=C(CSc1nc2ccccc2s1)NCc1cc([N+](=O)[O-])ccc1O
-40.6

----------
- Protocol Description: PhoP regulon inhibitors, Salmonella typhi PhoP promoter GFP reporter, confirmatory (AID 1850);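 also: 0% = induced wells with vehicle and 100% = uninduced wells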
- Condition Details: fluorescence, 4 h, at 50 µM, hits give high values
The whole screen tested about 310,000 compounds, of which about 1,000 (0.32%) were called active. The list is a sample of the results. Results with a measured potency or affinity are listed apart.
Measured Parameter: inhibition (%)
// return numeric value only (unit: %, not printed)

# query: inhibition of entry Cc1c(CN(C)C)c2c(n1C)C(=O)c1ccc(Br)cc1-2
-10.7

Lookup Cc1c(CN(C)C)c2c(n1Cc1ccccc1)C(=O)c1ccccc1-2
5.65

Lookup O=C(CCC(=O)c1ccc(F)cc1)NC1CCCN(Cc2ccccc2F)C1 (stereo unspecified)
-3.89

Lookup Cc1ccccc1OCCN1C(=O)c2ccccc2C1=O
-6.01

Lookup COc1ccc(N(CC(=O)Nc2ccc(C(C)C)cc2)S(=O)(=O)c2c(C)noc2C)cc1
-9.48

Lookup CC(C)CCNc1nc(N2CCCC2)c2c(c1C#N)CCN(C)C2
19.4

Lookup NC1=NC[C@@H](Cc2ccc(O)cc2)N1CCC12CC3CC(CC(C3)C1)C2
-4.88

Lookup Cc1cc(C)c2nc(N(CCCN(C)C)C(=O)c3ccc(S(=O)(=O)N4CC(C)OC(C)C4)cc3)sc2c1 (stereo unspecified)
7.15

Lookup Cc1ccc(SCc2cc(=O)[nH]c(N3CCOCC3)n2)cc1
4.21

Lookup NC1=NC[C@H](Cc2ccc(O)cc2)N1CCc1cccc(F)c1
-13.5

Lookup NC1=NC[C@@H](Cc2ccc(O)cc2)N1CCc1cccc2ccccc12
-7.1
